target: UniProt:P43220; experiment: GLP1R cAMP HTRF assay, HEK293/GLP-1R/CRE/Luc (HEK293T cells); type: cell-based; conditions: read-out: EC50
Sequence (P43220 24-463): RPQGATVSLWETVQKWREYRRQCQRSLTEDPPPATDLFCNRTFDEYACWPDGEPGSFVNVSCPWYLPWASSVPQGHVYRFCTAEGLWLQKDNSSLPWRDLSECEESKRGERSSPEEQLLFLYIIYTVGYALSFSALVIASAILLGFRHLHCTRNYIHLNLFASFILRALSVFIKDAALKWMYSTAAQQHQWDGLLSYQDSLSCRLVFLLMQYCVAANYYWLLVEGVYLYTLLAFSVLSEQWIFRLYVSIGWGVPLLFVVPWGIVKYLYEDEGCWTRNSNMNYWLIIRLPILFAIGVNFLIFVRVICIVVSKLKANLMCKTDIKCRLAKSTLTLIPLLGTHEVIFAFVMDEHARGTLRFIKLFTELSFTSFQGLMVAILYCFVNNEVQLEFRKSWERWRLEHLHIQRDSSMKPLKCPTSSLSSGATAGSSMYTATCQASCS
pEC50: −log10 of the molar value.
test_readout: pEC50

| compound | measured_result |
| --- | --- |
| O=C(O)c1ccc2nc(CN3CC=C(c4ccc(F)c(OCc5ccc(Cl)cc5F)c4)CC3)n(C[C@@H]3CCO3)c2n1 [Compound 236] | ≥ 7.82 |
| N#Cc1ccc(COc2cncc(C3CCN(Cc4nc5ccc(C(=O)O)cc5n4C[C@@H]4CCO4)CC3)n2)c(F)c1 [Compound 22] | ≥ 6.82 |
| O=C(O)c1ccc2nc(CN3CC=C(c4ccc5c(n4)N(CCc4cccc(Cl)c4)CCO5)CC3)n(C[C@@H]3CCO3)c2c1 [Compound 37] | < 6.00 |
| O=C(O)c1ccc2nc(CN3CC=C(c4ncc(F)c(OCc5ccc(C#CC6CC6)cc5F)n4)CC3)n(C[C@@H]3CCO3)c2c1 [Compound 209] | ≥ 7.82 |

###

target: UniProt P43220; experiment: GLP1R cAMP HTRF assay, HEK293/GLP-1R/CRE/Luc (HEK293T cells); format: cell-based; conditions: read-out: EC50
pEC50: −log10 of the molar value.
Entries and their pEC50
test_readout: pEC50

| compound | system_tested | test_readout | measured_result |
| --- | --- | --- | --- |
| COc1ccc(COc2cccc(C3=CCN(Cc4nc5ccc(C(=O)O)cc5n4C[C@@H]4CCO4)CC3)n2)cc1 [Compound 118] | UniProt P43220 | pEC50 | ≥ 7.82 |
| Cn1cnc2ccc(COc3cccc(C4=CCN(Cc5nc6ccc(C(=O)O)cc6n5C[C@@H]5CCO5)CC4)n3)cc21 [Compound 241] | UniProt P43220 | pEC50 | ≥ 6.82 |
| O=C(O)c1ccc2nc(CN3CC=C(c4cccc(OCc5ccccn5)n4)CC3)n(C[C@@H]3CCO3)c2c1 [Compound 159] | UniProt P43220 | pEC50 | ≥ 6.82 |
| O=C(O)c1ccc2nc(CN3CC=C(c4cccc(CCc5ccc(Cl)cc5F)n4)CC3)n(C[C@@H]3CCO3)c2c1 [Compound 113] | UniProt P43220 | pEC50 | ≥ 6.82 |
| O=C(O)c1ccc2nc(CN3CC=C(c4nc(OCc5ccc(Cl)cc5F)ncc4F)CC3)n(C[C@@H]3CCO3)c2c1 [Compound 126] | UniProt P43220 | pEC50 | ≥ 7.82 |
| O=C(O)c1ccc2nc(CN3CC=C(c4nc(OCc5ccc(Cl)cc5F)c(F)cc4F)CC3)n(C[C@@H]3CCO3)c2c1 [Compound 131] | UniProt P43220 | pEC50 | ≥ 7.82 |
| O=C(O)c1ccc2nc(CN3CC=C(c4cccc(OCc5ccc(Cl)cc5)n4)CC3)n(C[C@@H]3CCO3)c2c1 [Compound 44] | UniProt P43220 | pEC50 | ≥ 7.82 |
| N#Cc1ccc(COc2ccc(F)c(N3CCN(Cc4nc5ccc(C(=O)O)cc5n4C[C@@H]4CCO4)CC3)c2)c(F)c1 [Compound 197] | UniProt P43220 | pEC50 | ≥ 6.00 |
| COc1ccc(COc2cccc(C3=CCN(Cc4nc5ccc(C(=O)O)cc5n4C[C@@H]4CCO4)CC3)n2)cn1 [Compound 119] | UniProt P43220 | pEC50 | ≥ 7.82 |
| O=C(O)c1cc2c(cc1F)nc(CN1CC=C(c3cccc(OCc4ccc(Cl)cc4F)n3)CC1)n2C[C@@H]1CCO1 [Compound 172] | UniProt P43220 | pEC50 | ≥ 7.82 |
| O=C(O)c1ccc2nc(CC3CCN(c4cccc(OCc5ccc(F)cc5F)n4)CC3)n(C[C@@H]3CCO3)c2n1 [Compound 229] | UniProt P43220 | pEC50 | ≥ 7.82 |
| O=C(O)c1ccc2nc(CN3CC=C(c4cncc(OCc5ccc(Cl)cc5F)c4)CC3)n(C[C@@H]3CCO3)c2c1 [Compound 32] | UniProt P43220 | pEC50 | ≥ 6.00 |
| N#Cc1ccc(COc2ccnc(C3=CCN(Cc4nc5ccc(C(=O)O)cc5n4C[C@@H]4CCO4)CC3)n2)c(F)c1 [Compound 176] | UniProt P43220 | pEC50 | ≥ 7.82 |
| O=C(O)c1ccc2nc(CN3CC=C(c4ccnc(OCc5ccc(C(F)(F)F)nc5)n4)CC3)n(C[C@@H]3CCO3)c2c1 [Compound 219] | UniProt P43220 | pEC50 | ≥ 6.00 |
| N#Cc1ccc2nc(CN3CC=C(c4cccc(OCc5ccc(Cl)cc5F)n4)CC3)n(C[C@@H]3CCO3)c2c1 [Compound 71] | UniProt P43220 | pEC50 | < 6.00 |
| O=C(O)c1ccc2nc(CN3CCN(c4cc(F)cc(OCc5ccc(Cl)cc5F)c4)CC3)n(C[C@@H]3CCO3)c2c1 [Compound 185] | UniProt P43220 | pEC50 | ≥ 7.82 |
| O=C(O)c1ccc2nc(CN3CC=C(n4cccc(OCc5ccc(Cl)cc5F)c4=O)CC3)n(C[C@@H]3CCO3)c2c1 [Compound 51] | UniProt P43220 | pEC50 | < 6.00 |
| Cc1c(C(=O)O)ccc2nc(CN3CC=C(c4cccc(OCc5ccc(Cl)cc5)n4)CC3)n(C[C@@H]3CCO3)c12 [Compound 110] | UniProt P43220 | pEC50 | ≥ 7.82 |
| O=C(O)c1ccc2nc(CN3CC=C(c4cccc(OCc5ccc(Cl)cc5F)n4)CC3)n(C[C@@H]3CCO3)c2n1 [Compound 169] | UniProt P43220 | pEC50 | ≥ 7.82 |
| O=C(O)c1ccc2nc(CN3CC=C(c4cccc(OCc5ccc(Cl)cc5F)c4)CC3)n(C[C@@H]3CCO3)c2c1 [Compound 28] | UniProt P43220 | pEC50 | ≥ 7.82 |
| O=C(O)c1ccc2nc(CN3CC=C(c4ccc5c(n4)N(Cc4ccc(Cl)cc4F)C(=O)CO5)CC3)n(C[C@@H]3CCO3)c2c1 [Compound 38] | UniProt P43220 | pEC50 | ≥ 6.00 |
| O=C(O)c1ccc2nc(CN3CC=C(c4cccc(OCc5cc(Cl)cc(C(F)(F)F)c5)n4)CC3)n(C[C@@H]3CCO3)c2c1 [Compound 143] | UniProt P43220 | pEC50 | ≥ 7.82 |
| O=C(O)c1ccc2nc(CN3CC=C(c4cccc(NC5CCOc6cc(Cl)ccc65)n4)CC3)n(C[C@@H]3CCO3)c2c1 (some centres unmarked) [Compound 61] | UniProt P43220 | pEC50 | ≥ 6.00 |
